Target: COX-1 (Homo sapiens, UniProt P23219)
Construct: host or cells: U-937 human lymphoma cells
Sequence (P23219 24-599): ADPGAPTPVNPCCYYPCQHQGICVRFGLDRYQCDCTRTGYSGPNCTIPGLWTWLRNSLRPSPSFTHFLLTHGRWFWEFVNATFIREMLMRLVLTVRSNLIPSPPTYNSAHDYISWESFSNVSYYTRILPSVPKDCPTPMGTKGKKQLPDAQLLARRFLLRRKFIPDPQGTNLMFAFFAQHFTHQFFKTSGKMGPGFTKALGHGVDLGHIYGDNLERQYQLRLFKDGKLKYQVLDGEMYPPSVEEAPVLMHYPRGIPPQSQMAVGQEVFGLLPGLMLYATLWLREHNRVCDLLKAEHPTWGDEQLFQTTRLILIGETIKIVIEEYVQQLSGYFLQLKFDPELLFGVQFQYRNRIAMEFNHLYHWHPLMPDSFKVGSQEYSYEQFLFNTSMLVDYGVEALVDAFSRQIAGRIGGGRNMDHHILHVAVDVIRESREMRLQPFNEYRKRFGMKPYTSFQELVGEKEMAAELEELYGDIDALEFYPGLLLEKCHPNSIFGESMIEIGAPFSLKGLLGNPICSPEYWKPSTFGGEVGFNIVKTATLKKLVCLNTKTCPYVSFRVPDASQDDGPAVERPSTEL
Assay: Assay for the COX-1 inhibitory activity using U-937 (PGE2 inhibition)
Format: cell-based
Conditions: 1 μM test compound; U-937 human lymphoma cells; PGE2 inhibition vs DMSO; read-out: Cyclooxygenase (COX) Inhibition (%) COX-1 (1 μM)
attribute.measured: inhibition at 1 µM (%)
Hi! Could you send only the number? It should be in %, unit omitted.

## Task Query inhibition at 1 µM for CC(C)(C)c1ccc(-c2nc(C(F)(F)F)nn2-c2ccc(S(C)(=O)=O)cc2)cc1
## Result 21.6

## Task State its inhibition at 1 µM: COc1ccc(/C=C/c2nc(C(F)(F)F)nn2-c2ccc(S(C)(=O)=O)cc2)cc1
## Result 23.5

## Task Quickly give me recorded inhibition at 1 µM for CS(=O)(=O)c1ccc(-n2nc(C(F)(F)F)nc2-c2ccc(Br)cc2)nn1
## Result 14.6

## Task Provide inhibition at 1 µM value for the following compound: CS(=O)(=O)c1ccc(-n2nc(C(F)(F)F)nc2-c2cccc(C(F)(F)F)c2)cc1
## Result 16.5

## Task Return inhibition at 1 µM for the following compound: CS(=O)(=O)c1ccc(-n2nc(C(F)(F)F)nc2/C=C/c2ccccc2)cc1
## Result 19.2

## Task Give inhibition at 1 µM for the following compound: NS(=O)(=O)c1ccc(-n2nc(C(F)(F)F)nc2-c2ccc(Br)cc2)cc1
## Result 23.1

## Task Please look at this compound and report its inhibition at 1 µM: Cc1ccc(-c2nc(C(F)(F)F)nn2-c2ccc(S(N)(=O)=O)cc2)cc1
## Result 38

## Task Answer with reported inhibition at 1 µM of CS(=O)(=O)c1ccc(-n2nc(C(F)(F)F)nc2-c2cccc(Cl)c2)cc1
## Result 18.6

## Task Give a short answer stating reported inhibition at 1 µM for CS(=O)(=O)c1ccc(-n2nc(C(F)(F)F)nc2-c2ccc(Br)cc2)nc1 .
## Result 14.6

## Task Return the recorded inhibition at 1 µM value; entry: CS(=O)(=O)c1ccc(-n2nc(C(F)(F)F)nc2-c2ccc3c(c2)OCO3)cc1
## Result 18.7

###

// values below are reported inhibition at 0.01 µM
Target: COX-2 (Mus musculus)
Construct: host or cells: RAW 264.7 cells, aspirin-pretreated, then induced with interferon gamma and LPS
Sequence (Q05769 18-604): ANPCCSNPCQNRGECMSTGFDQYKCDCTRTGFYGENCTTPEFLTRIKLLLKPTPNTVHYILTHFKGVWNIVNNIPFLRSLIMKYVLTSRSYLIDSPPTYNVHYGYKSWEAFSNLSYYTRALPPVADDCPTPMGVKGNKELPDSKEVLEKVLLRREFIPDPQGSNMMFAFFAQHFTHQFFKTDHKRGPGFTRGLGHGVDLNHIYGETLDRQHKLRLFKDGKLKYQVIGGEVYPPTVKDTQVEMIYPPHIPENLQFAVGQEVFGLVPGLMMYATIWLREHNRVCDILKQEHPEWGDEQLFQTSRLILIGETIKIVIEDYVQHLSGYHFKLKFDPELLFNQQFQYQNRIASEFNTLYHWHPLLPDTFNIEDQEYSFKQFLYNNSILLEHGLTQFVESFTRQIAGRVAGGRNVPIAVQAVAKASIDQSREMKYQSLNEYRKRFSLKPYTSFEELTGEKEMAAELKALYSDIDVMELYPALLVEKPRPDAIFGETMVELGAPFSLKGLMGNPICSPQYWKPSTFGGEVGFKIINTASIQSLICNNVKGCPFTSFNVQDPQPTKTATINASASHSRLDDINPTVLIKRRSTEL
Assay: Assay for the COX-2 inhibitory activity using RAW 264.7 cell line (PGE2, interferon γ/LPS induced)
Type: cell-based
Conditions: RAW264.7; 10 nM test compound; RAW 264.7 cells; interferon γ + LPS, 18 hours; PGE2; read-out: Cyclooxygenase (COX) Inhibition (%) COX-2 (10 nM)

See these solved cases before continuing.
compound	result
CS(=O)(=O)c1ccc(-n2nc(C(F)(F)F)nc2-c2ccc([N+](=O)[O-])cc2Cl)cc1 [Example 38]	5.95%
COc1ccc(-c2nc(C(F)(F)F)nn2-c2ccc(S(N)(=O)=O)cc2)cc1 [Example 43]	32.3%

## Task Supply recorded inhibition at 0.01 µM for CS(=O)(=O)c1ccc(-n2nc(C(F)(F)F)nc2-c2cccc(Br)c2)cc1 [Example 29] here.
## Result 6.23%

## Task Consider the compound CS(=O)(=O)c1ccc(-n2nc(C(F)(F)F)nc2-c2ccc(Br)cc2)nc1 [Example 45] . State its measured inhibition at 0.01 µM.
## Result 33.6%

// data source = patent US7019144B2
